Below: a set of entries, each annotated with reported hCD71:HSA.
target: T1, recombinant biotinylated CD71 extracellular domain (Sino Biologics) with an N-terminal 6His tag (human, UniProt P02786 89-760, biotinylated (sites not given)); test: screening ELISA, ratio
T1 construct: extracellular domain; also called hCD71; huCD71
T1 sequence (P02786 other isoform, or with tags, fused parts or gaps): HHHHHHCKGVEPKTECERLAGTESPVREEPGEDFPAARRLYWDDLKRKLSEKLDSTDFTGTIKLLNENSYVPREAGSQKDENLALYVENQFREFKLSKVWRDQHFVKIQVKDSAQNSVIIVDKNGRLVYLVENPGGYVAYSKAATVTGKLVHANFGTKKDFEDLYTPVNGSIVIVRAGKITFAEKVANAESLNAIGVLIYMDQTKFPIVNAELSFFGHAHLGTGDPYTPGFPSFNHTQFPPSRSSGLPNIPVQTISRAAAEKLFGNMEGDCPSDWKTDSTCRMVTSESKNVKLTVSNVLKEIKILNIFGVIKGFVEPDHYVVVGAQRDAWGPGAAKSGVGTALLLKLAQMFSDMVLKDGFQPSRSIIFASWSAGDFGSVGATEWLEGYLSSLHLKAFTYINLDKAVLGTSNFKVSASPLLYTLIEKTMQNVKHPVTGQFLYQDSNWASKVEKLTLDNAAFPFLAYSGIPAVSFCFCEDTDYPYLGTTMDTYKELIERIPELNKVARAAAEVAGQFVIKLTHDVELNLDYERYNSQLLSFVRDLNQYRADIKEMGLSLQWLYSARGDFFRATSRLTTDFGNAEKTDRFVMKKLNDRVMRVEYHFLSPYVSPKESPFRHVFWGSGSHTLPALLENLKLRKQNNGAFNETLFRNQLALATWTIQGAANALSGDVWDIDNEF
Keep it simple and answer with nothing but the number.

Query: I'd like to know its hCD71:HSA. The binder in question is SEQ ID NO 304 (designed binder, FN3 domain) MLPAPKNLVVSRVTEDSARLSWTAPDAAFDSFIITYWEHVGDGEAIVLTVPGSERSYDLTGLKPGTEYFVEIYGVKGGYLSKPLSAIFTT
Reply: 1240

Query: Quick check: hCD71:HSA of SEQ ID NO 208 (designed binder, FN3 domain) MLPAPKNLVVSRVTEDSARLSWTAPDAAFDSFGIVYREPYVGGEAIVLTVPGSERSYDLTGLKPGTEYGVPIPGVKGGYDSGPLSAIFTT ?
Reply: 49

Query: Consider the binder shown here: SEQ ID NO 165 (designed binder, FN3 domain) MLPARKNLVVSRVTEDSARLSWTAPDAAFDSFFIPYAEPSPTGEAIVLTVPGSERSYDLTGLKPGTEYSVLIHGVKGGHLSDPLSAISTT What is its recorded hCD71:HSA?
Reply: 41

Query: Recorded hCD71:HSA for SEQ ID NO 84 (designed binder, FN3 domain) MLPAPKNLVVSRVTEDSARLSWTAPDAAFDSFPIYYWEVFPAGEAIELDVPGSERSYDLTGLKPGTEYFVRIEGVKGGASSYPLRAEFTT , please?
Reply: 449

Query: Which measured hCD71:HSA value corresponds to SEQ ID NO 262 (designed binder, FN3 domain) MLPAPKNLVVSRVTEDSARLSWTAPDAAFDSFAIEYFEYTGEGEAIVLTVPGSERSYDLTGLKPGTEYYVGIYGVKGGYLSRPLSAIFTT ?
Reply: 1860

Query: Look up hCD71:HSA for this binder: SEQ ID NO 156 (designed binder, FN3 domain) MLPAPKNLVVSRVTEDSARLSWTAPDAAFDSFAIEYFENLGIGEAIVLTVPGSERSYDLTGLKPGTEYVVNIYGVKGGWLSSPLSAIFTT
Reply: 206
